B1: FAM46C (parent)
chain: VRSRLEEAGIKVHDVRLNGSAAGH

variants of: B1; assay: protein stability index of a GFP-peptide fusion (GPS, HEK-293T) (PSI 1-6); higher = more stable; details: c terminus: a fixed tail appended;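 note: lentivirally expressed fusions sorted by FACS into six bins by GFP to DsRed ratio, PSI derived from sequencing read proportions per bin multiplied by bin number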
QUANTITY MEASURED: protein stability index
Number only, please.

Below: 3 variants and their reported protein stability index.
# CHANGE, protein stability index
records = [
    ("D14H", 3.04),
    ("R2A", 3.04),
    ("V12F", 3.04),
]

Now, please, on to the next variant.
(Q) Item under review: R2Y . Reported protein stability index?
(A) 2.95
